procedure.summary: Water solubility, shake flask method in 0.1 M phosphate buffer pH 6.8
Type: physicochemical
assay.conditions: 37 °C, pH 6.8, aqueous buffer, thermodynamic from solid
readout.label: solubility at 90 min (µM)

These solved cases illustrate the format of a correct answer.
O=C(/C=C(/C=C/c1cccnc1)NC1CCCCC1)/C=C/c1cccnc1; 11.3
COCCCN1C(/C=C/c2cccnc2)=CC(=O)CC1c1cccnc1 (stereo not drawn); 1280
O=C(/C=C(O)/C=C/c1cccnc1)/C=C/c1cccnc1; 12.4
O=C1C=C(/C=C/c2cccnc2)N(CCCO)C(c2cccnc2)C1 (stereo not drawn); 2460
COc1cc(/C=C/C(=O)CC(=O)/C=C/c2ccc(O)c(OC)c2)ccc1O [curcumin, reference compound]; 2.9

a = O=C(/C=C(O)/C=C/c1ccc[nH]1)/C=C/c1ccc[nH]1
b = O=C(/C=C(O)/C=C/c1c[nH]c2ccccc12)/C=C/c1c[nH]c2ccccc12
c = O=C(/C=C(/C=C/c1cccnc1)NCCCO)/C=C/c1cccnc1
Asked: Please list these in order of increasing solubility at 90 min. Thank you! Answer format: list of labels, ordered as asked.
Given back: b, a, c

Source listed as paper PMC5974556.
